- Tested on: SK-MEL-28 melanoma
- assayText: NCI tumour cell line growth inhibition, 48 h
quantityName: TGI (µM)
Give the number; µM is assumed, so skip it.

query: Lookup: TGI / SK-MEL-28 melanoma / COc1cc(CCNC2=CC(=O)c3ncccc3C2=O)ccc1O
result: 4.09

query: Try O[C@@H]1CCCCN1Cc1cc2cc3c(cc2c2cc(OCc4ccccc4)ccc12)OCO3 next.
result: 2.94

query: Here is the next compound: N=C(N)c1ccc(-c2ccc(-c3cccs3)s2)cc1F
result: 3.09

* * *

Provide the reported TGI of each item.
- Test system: SR leukemia
- assayText: NCI tumour cell line growth inhibition, 48 h

query: Could you share which TGI value was measured for CCCCCCCCCCCCOC(=N)N1CCOCC1 ?
result: 4.53 µM

query: Also, CCc1cccc(CC)c1NC1=CC(=O)C(=O)c2ccccc21 please.
result: > 100 µM

query: Do the same for N#Cc1nc(CCC(C(=O)O)N2C(=O)c3ccccc3C2=O)oc1N (stereo not given) please
result: > 100 µM

query: What would you report for NC(C(=O)O)C(O)c1cnc[nH]1 (stereo not given) ?
result: > 100 µM

query: And Cc1nnc(NS(=O)(=O)c2ccc(N=Nc3c(O)c(C(=O)O)cc4ccccc34)cc2)s1 ?
result: > 100 µM

query: Consider next the compound COC(=O)c1c(O)ccc2c1c1c(n2CCc2ccccc2)C(=O)c2ccccc2C1 in the same way.
result: > 100 µM

query: Now this one: Cc1[nH]n(C(=O)Cc2ccccc2)c(=O)c1/C=C1\C(=O)C=Cc2ccccc21
result: > 100 µM

query: Now this one: CSc1ccc(/C=C2\N=C(c3ccccc3)N(NC(=O)c3c(Cl)c(Cl)c(Cl)c(Cl)c3-c3nc4ccccc4[nH]3)C2=O)cc1
result: > 100 µM

query: How about O=C1Nc2ccc(I)cc2/C1=C/c1cc(Br)c(O)c(Br)c1 ?
result: 98.9 µM

query: Nc1ncnc2c1ncn2C1SC(CO)C(O)C1O (stereo not given) ?
result: 45.2 µM

query: Same thing, different compound: C[C@H](O)CCC(=O)c1ccoc1
result: > 100 µM

query: Follow-up entry: C[C@@H](NC(=O)Nc1cccc(C(=O)Nc2cc(C(C)(C)C)ccc2C(=O)O)n1)c1ccccc1
result: > 100 µM

query: Also need COc1ccc(Cc2c3cc(OC)c(OC)cc3cc[n+]2C)cc1 , thanks.
result: > 100 µM

query: How about CN(C)CCCn1c2c(c3ccc(N4CCNCC4)cc3c1=O)C(=O)c1ccccc1-2 ?
result: 1.69 µM

query: Another compound to look at: CC1=C(C(N)=O)C(c2ccncc2)C(C#N)C(=O)N1 (stereo not given)
result: > 100 µM

query: Would you mind doing CC(=O)OC(C(=O)NNC(=O)OC(C)(C)C)c1ccccc1 (stereo not given) as well?
result: > 100 µM

query: Can you handle O=C(N=Nc1c(O)[nH]c2c(Cl)cc(Cl)cc12)C(=O)Nc1cccc(C(F)(F)F)c1 next?
result: > 100 µM

query: Note, next up: NS(=O)(=O)c1ccc(NCc2cccc3c(=O)c4ccc(Cl)cc4oc23)cc1
result: > 51.3 µM

query: Can you handle CC(=O)O[C@H]1CC[C@@]2(C)C(=CC[C@@H]3[C@@H]2CC[C@]2(C)C(=O)/C(=C\c4ccccc4)C[C@@H]32)C1 next?
result: > 100 µM

query: Try this compound next: CC1(C)CCC(c2ccc(Cl)cc2)=C(CN2CCN(c3ccc(C(=O)NS(=O)(=O)c4ccc(N[C@H](CCN5CCOCC5)CSc5ccccc5)c(S(=O)(=O)C(F)(F)F)c4)cc3)CC2)C1
result: > 25.9 µM
